Sourced from paper PMC9482650

- tgt: T1, RHPN1, Q8TCX5
- T1 sequence (Q8TCX5 508-602, limits assumed, looked up): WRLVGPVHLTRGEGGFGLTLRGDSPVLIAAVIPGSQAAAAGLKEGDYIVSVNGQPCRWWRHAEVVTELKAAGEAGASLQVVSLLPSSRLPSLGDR
- experiment: holdup assay
- Parameters: key: below the threshold = too weak to quantify, mostly under pKd 3.1 to 4
- conditionParameters: plain residues with an end cap or a label only (N-terminal biotin on a linker: ttds)
Parameter pKd: see the listing below.
The answer should be written as a number, with no unit following it.

Some entries whose results are on file:
binder	pKd
ERKLSSESQV [LRP4, O75096]	3.96
IDNDTESTAL [ARHGAP17, Q68EM7]	4.47
SRPQRTQTQV [HPV67-E6, A4U7F2]	3.84

The measured pKd associated with QSARYRDTEL [TJP2, Q9UDY2] reads 4.03

The measured pKd associated with GQDSREETQL [KCNT2, Q6UVM3] reads 5

The measured pKd associated with TVASEKESVM [SLC1A5, Q15758] reads 3.67

The measured pKd associated with SSRTRRETQL [HPV16-E6, P03126] reads 4.23
